- assay system: Edg-2 (Homo sapiens, UniProt Q92633)
- Sequence (Q92633 whole entry): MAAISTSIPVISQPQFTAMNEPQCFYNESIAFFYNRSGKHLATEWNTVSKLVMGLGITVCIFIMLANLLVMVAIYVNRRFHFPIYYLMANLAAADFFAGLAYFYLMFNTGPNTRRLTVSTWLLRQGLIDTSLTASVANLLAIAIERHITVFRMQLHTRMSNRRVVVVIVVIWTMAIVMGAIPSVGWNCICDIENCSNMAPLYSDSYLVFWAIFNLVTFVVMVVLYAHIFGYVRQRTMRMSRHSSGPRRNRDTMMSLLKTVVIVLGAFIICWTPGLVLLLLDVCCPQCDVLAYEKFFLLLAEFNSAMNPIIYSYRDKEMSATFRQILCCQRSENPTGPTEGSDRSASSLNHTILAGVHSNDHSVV
- assay notes: Intracellular calcium (FLIPR) assay, HTC cells expressing Edg-2
- run conditions: agonist
pEC50: −log10 of the molar value.
property measured: pEC50

Query: Form field: reported pEC50 of COc1cc(C(=O)c2cc(Cl)ccc2N)cc(OC)c1OC
Response: < 4.60

====

- assay system: Edg-7 (Homo sapiens, UniProt Q9UBY5)
- Sequence (Q9UBY5 whole entry): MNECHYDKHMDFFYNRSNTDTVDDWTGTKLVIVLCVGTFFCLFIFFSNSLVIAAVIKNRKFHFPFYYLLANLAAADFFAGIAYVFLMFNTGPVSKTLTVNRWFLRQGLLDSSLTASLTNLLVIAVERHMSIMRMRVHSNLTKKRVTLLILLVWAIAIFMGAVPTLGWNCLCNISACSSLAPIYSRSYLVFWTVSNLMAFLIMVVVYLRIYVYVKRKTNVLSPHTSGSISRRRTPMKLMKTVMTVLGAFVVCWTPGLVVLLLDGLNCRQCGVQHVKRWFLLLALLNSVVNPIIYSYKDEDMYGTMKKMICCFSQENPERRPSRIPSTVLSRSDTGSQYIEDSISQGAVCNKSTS
- assay notes: Intracellular calcium (FLIPR) assay, HTC cells expressing Edg-7
- run conditions: agonist
property measured: EC50

Query: Data request, read-out EC50, for COc1cc(C(=O)c2cc(Cl)ccc2N)cc(OC)c1OC
Response: > 25 µM

====

Please go through the items and note down their IC50.
- assay system: Edg-2 (Homo sapiens, UniProt Q92633)
- assay notes: Intracellular calcium (FLIPR) assay, HTC cells expressing Edg-2
- run conditions: Table 2; LPA-stimulated

Query: Form field - read-out: IC50; system: Edg-2 (Homo sapiens, UniProt Q92633); submitted item: O=C(c1cccnc1)N1N=C(c2ccc(Br)cc2)CC1(O)C(F)(F)F (centres unmarked) [Compound 102]
Response: > 20 µM

Query: IC50 of COc1cc2c(cc1OC)[C@H]1CN3CCc4cc(OC)c(OC)cc4[C@H]3CN1CC2 [Compound 103] on Edg-2 (Homo sapiens, UniProt Q92633)?
Response: > 20 µM

====

- assay system: UniProt Q9H228
- Sequence (Q9H228 whole entry): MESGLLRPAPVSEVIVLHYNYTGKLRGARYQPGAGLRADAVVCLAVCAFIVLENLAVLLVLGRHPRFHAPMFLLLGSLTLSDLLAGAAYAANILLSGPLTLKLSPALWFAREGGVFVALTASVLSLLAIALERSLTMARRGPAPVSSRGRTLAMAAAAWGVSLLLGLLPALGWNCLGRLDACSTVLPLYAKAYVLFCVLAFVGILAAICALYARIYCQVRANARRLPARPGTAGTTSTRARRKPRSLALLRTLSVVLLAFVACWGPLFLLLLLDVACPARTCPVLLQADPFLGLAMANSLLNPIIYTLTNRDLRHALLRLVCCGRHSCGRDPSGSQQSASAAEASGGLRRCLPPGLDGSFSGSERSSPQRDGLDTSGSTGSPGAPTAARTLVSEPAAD
- assay notes: Intracellular calcium (FLIPR) assay, HTC cells expressing Edg-8
- run conditions: Table 2; S1P-stimulated
pIC50: −log10 of the molar value.
property measured: pIC50

Query: // pIC50 lookup, key: O=C(c1cccnc1)N1N=C(c2ccc(Br)cc2)CC1(O)C(F)(F)F (centres unmarked)
Response: < 4.70

Query: If you can, please state the reported pIC50 value of COc1cc2c(cc1OC)[C@H]1CN3CCc4cc(OC)c(OC)cc4[C@H]3CN1CC2 .
Response: < 4.70

====

- assay system: Edg-6 (Homo sapiens)
- Sequence (O95977 whole entry): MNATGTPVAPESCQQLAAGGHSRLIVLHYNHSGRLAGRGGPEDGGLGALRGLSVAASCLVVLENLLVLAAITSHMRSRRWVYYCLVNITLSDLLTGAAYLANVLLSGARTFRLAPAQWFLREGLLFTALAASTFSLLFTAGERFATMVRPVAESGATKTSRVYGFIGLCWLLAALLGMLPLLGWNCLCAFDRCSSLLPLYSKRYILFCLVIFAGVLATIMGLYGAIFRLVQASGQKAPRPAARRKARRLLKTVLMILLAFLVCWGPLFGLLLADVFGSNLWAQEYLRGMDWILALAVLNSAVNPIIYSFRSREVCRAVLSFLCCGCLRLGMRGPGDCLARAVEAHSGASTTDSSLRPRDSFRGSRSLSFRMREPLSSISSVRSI
- assay notes: Intracellular calcium (FLIPR) assay, HTC cells expressing Edg-6
- run conditions: Table 2; S1P-stimulated
property measured: IC50

Query: Please look up its IC50: COc1cc2c(cc1OC)[C@H]1CN3CCc4cc(OC)c(OC)cc4[C@H]3CN1CC2
Response: > 20 µM

Query: Given the entry O=C(c1cccnc1)N1N=C(c2ccc(Br)cc2)CC1(O)C(F)(F)F (centres unmarked) , report its measured IC50.
Response: > 20 µM

====

Field: IC50. Provide a value for each of the compounds that follow.
- assay system: UniProt Q99500
- Sequence (Q99500 whole entry): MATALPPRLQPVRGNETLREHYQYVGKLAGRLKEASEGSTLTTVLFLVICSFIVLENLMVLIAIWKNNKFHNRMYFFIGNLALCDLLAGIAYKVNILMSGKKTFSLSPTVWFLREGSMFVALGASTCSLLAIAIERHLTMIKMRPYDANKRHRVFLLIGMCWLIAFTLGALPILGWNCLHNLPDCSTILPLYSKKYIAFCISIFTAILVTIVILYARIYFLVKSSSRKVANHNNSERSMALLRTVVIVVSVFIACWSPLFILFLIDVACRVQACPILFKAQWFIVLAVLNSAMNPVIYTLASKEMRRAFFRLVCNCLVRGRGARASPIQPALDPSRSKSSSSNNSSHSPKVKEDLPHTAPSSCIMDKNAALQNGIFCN
- assay notes: Intracellular calcium (FLIPR) assay, HTC cells expressing Edg-3
- run conditions: Table 2; S1P-stimulated

Query: Quick one: IC50 for O=C(c1cccnc1)N1N=C(c2ccc(Br)cc2)CC1(O)C(F)(F)F (centres unmarked) ?
Response: > 20 µM

Query: Give the measured IC50 of COc1cc2c(cc1OC)[C@H]1CN3CCc4cc(OC)c(OC)cc4[C@H]3CN1CC2 .
Response: > 20 µM

====

- assay system: UniProt:P21453
- Sequence (P21453 whole entry): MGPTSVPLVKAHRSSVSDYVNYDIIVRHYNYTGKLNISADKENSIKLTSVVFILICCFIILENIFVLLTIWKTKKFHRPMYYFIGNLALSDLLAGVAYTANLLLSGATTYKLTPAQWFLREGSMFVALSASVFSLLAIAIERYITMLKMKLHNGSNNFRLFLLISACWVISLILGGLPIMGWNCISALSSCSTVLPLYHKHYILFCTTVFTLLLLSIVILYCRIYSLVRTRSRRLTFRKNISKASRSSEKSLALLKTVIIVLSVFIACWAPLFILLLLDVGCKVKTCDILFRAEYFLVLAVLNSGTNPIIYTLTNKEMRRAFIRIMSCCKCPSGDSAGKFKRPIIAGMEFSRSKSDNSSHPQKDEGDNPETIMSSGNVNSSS
- assay notes: Intracellular calcium (FLIPR) assay, HTC cells expressing Edg-1
- run conditions: agonist; Edg 1/Gqi
property measured: pEC50
The read-out pEC50 is expressed as -log10 of concentration in moles per litre.

Query: Form field - read-out: pEC50; system: UniProt:P21453; submitted item: COc1cc(C(=O)c2cc(Cl)ccc2N)cc(OC)c1OC
Response: 5.00
